Target: PRMT5/MEP50 complex (Homo sapiens, UniProt O14744)
Sequence (O14744 whole entry, the tested form may be a part): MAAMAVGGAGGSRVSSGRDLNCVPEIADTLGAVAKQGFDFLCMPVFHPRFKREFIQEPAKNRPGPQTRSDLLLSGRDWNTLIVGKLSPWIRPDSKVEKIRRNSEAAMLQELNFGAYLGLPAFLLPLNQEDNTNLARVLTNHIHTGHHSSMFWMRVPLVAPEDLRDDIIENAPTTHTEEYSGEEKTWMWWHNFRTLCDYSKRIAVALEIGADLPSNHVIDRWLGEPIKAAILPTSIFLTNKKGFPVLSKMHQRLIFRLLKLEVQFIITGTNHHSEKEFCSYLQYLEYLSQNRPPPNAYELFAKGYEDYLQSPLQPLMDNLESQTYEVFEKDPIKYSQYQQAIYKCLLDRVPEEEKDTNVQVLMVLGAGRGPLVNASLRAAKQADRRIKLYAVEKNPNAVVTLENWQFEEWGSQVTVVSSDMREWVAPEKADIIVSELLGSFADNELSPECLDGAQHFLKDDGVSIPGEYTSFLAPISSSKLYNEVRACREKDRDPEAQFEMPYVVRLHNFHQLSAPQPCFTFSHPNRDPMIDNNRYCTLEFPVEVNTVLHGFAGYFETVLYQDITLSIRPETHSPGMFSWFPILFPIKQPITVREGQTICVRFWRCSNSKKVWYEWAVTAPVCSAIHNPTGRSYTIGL
Sequence (Q9BQA1 whole entry, further chain, the tested form may be a part): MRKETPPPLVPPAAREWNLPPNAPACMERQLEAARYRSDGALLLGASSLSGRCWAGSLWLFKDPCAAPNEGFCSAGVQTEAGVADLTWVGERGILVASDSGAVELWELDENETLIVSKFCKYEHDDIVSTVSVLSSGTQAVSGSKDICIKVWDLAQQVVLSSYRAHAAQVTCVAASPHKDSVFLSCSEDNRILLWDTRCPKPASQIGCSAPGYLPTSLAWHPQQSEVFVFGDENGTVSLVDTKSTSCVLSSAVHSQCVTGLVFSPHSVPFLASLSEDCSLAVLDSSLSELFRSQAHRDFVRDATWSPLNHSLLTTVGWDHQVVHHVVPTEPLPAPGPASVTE
Experiment: Inhibition of recombinant human fetal brain FLAG-tagged PRMT5/full length human testis 6His-tagged MEP50 expressed in baculovirus infected insect Sf9 cells using human histone H4 (1 to 15 residues) as substrate preincubated for 30 mins followed by [3H]-SAM addition
Recorded IC50 by entry

The following molecules have reported results that may help.
                                   molecule  readout_type          observed
0  OC(COc1cccc(-c2ccc3ncn(C4CCNCC4)c3c2)c1)CN1CCc2ccccc2C1 (configuration not stated)          IC50          < 100 nM
1  O=C(COc1cccc(C(=O)N2CCOCC2)c1)NCC(O)CN1CCc2ccccc2C1 (configuration not stated)          IC50    101 to 1000 nM
2  NS(=O)(=O)c1cccc(OCC(=O)NCC(O)CN2CCc3ccccc3C2)c1 (configuration not stated)          IC50  1000 to 10000 nM

## Input What does the data say about its IC50? Entry: CN1CC(n2cnc3ccc(-c4cccc(OCC(O)CN5CCc6ccccc6C5)c4)cc32)C1 (configuration not stated)
## Output < 100 nM

## Input Also check "O=c1cc(Nc2ccccc2)ccn1C[C@H](O)CN1CCc2ccccc2C1"
## Output 1000 to 10000 nM

## Input Also check COc1ccc(Cn2cnc3ccc(-c4ccc(OCC(O)CN5Cc6ccccc6C5)cc4)cc32)cc1 (configuration not stated)
## Output 1000 to 10000 nM

## Input Also check CC(=O)Nc1ccc(OCC(=O)NCC(O)CN2CCc3ccccc3C2)cc1 (configuration not stated)
## Output 101 to 1000 nM

## Input Also check OC(COc1ccc(C2CCCNC2)cc1)CN1CCc2ccccc2C1 (configuration not stated)
## Output < 100 nM

## Input Also check OC(COc1cccc(-c2cccc(Oc3ccccc3)c2)c1)CN1CCc2ccccc2C1 (configuration not stated)
## Output 1000 to 10000 nM

## Input Also check O=C(COc1ccccc1F)NCC(O)CN1CCc2ccccc2C1 (configuration not stated)
## Output 101 to 1000 nM

## Input Also check O=C(COc1cccc(CN2CCOCC2)c1)NCC(O)CN1CCc2ccccc2C1 (configuration not stated)
## Output < 100 nM

## Input Also check OC(CCc1cccc(CNC2CCCC2)c1)CN1CCc2ccccc2C1 (configuration not stated)
## Output 10000 to 40000 nM

## Input Also check CS(=O)(=O)Nc1ccccc1OCC(=O)NCC(O)CN1CCc2ccccc2C1 (configuration not stated)
## Output < 100 nM

## Input Also check O=C1COc2ccccc2N1CC(O)CN1CCc2ccccc2C1 (configuration not stated)
## Output 101 to 1000 nM

## Input Also check "C[C@H](Oc1cccc2cccnc12)C(=O)NC[C@@H](O)CN1Cc2ccccc2C1"
## Output 101 to 10000 nM

## Input Also check O=C1CN(c2ccccc2Cl)CCN1CC(O)CN1CCc2ccccc2C1 (configuration not stated)
## Output 101 to 1000 nM

## Input Also check "O=C(COc1ccccc1-c1cc[nH]n1)NC[C@@H](O)CN1CCc2ccccc2C1"
## Output < 100 nM

## Input Also check CN1CCOc2cccc(OCC(=O)NCC(O)CN3CCc4ccccc4C3)c21 (configuration not stated)
## Output < 100 nM

## Input Also check O=C(NCC(O)CN1CCc2ccccc2C1)c1cccc(N2CCOCC2)c1 (configuration not stated)
## Output < 100 nM

## Input Also check CS(=O)(=O)c1ccccc1OCC(=O)NCC(O)CN1CCc2ccccc2C1 (configuration not stated)
## Output < 100 nM

## Input Also check CN(C)c1ccc(-c2cccc(OCC(O)CN3CCc4ccccc4C3)c2)cc1 (configuration not stated)
## Output 101 to 1000 nM

## Input Also check OC(COc1cccc(-c2ccc3[nH]ncc3c2)c1)CN1CCc2ccccc2C1 (configuration not stated)
## Output 101 to 1000 nM
